Hello, the source for this data is ChEMBL document CHEMBL1126873, in case you need it.

# assay_target: O-acyltransferase (Oryctolagus cuniculus, UniProt G1SFD9)
# Sequence (G1SFD9 1-524): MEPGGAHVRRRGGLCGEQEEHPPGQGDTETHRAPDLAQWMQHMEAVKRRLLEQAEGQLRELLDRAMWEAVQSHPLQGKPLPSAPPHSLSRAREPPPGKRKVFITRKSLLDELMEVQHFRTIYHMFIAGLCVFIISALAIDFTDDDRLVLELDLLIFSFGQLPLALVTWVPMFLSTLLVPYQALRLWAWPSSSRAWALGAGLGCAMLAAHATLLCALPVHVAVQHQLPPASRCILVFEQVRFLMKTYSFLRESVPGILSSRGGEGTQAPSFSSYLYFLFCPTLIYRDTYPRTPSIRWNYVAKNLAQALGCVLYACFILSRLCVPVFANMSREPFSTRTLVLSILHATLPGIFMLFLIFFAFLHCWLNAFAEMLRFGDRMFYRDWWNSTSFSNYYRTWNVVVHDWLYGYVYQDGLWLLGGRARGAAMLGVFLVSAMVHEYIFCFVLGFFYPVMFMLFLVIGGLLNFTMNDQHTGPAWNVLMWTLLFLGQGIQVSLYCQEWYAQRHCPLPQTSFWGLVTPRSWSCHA
# experiment_description: In vitro inhibition of Acyl coenzyme A:cholesterol acyltransferase using intestinal microsomes isolated from cholesterol fed rabbits
property_name: IC50 (nM)

Consider the worked cases shown below.
CC(C)c1cccc(C(C)C)c1OC(=O)NCC1(c2ccccc2)CCCC1 : 49
CC(C)c1cccc(C(C)C)c1NC(=O)NC1CCCc2ccccc21 (stereo not drawn) : 850
COc1ccc(NC(=O)NCC2(c3ccccc3)CCCCC2)cc1 : 4900
CC(C)c1cccc(C(C)C)c1NC(=O)NCC1(c2cccs2)CCCC1 : 12
CCOC(=O)c1ccc(NC(=O)NCC2(c3ccccc3)CCCCC2)cc1 : 6100
Cc1cccc(C(C)C)c1NC(=O)NCC1(c2ccccc2)CCCC1 : 16
CCCCCC(CCCCC)(CNC(=O)Nc1c(C(C)C)cccc1C(C)C)c1ccccc1 : 26
COc1cccc(NC(=O)NCC2(c3ccccc3)CCCCC2)c1 : 2500

[a] CCc1cccc(CC)c1NC(=O)NCC1(c2ccccc2)CCCCC1
[b] CC(C)c1cccc(C(C)C)c1NC(=O)NCC1c2ccccc2-c2ccccc21
Prompt: Please indicate which has the smaller reported IC50: a , or b . Answer with the label corresponding to your selection.
Response: b
(b: 27 nM, a: 51 nM)
